assay: Pharmacokinetic experiment in mice (single PO or IV administration); conditions: male, ICR, mouse, plasma, po, 10 mg/kg
TEST READOUT: bioavailability (%)
I only need the number, in %, no unit after it.

Query :: I have this compound here, C#Cc1c(F)ccc2cc(O)cc(-c3ncc4c(N5C[C@H]6CC[C@@H](C5)N6)nc(OC[C@@]56CCCN5C/C(=C\F)C6)nc4c3F)c12 [Reference Compound 1, reference compound] , and I need its recorded bioavailability.
Result :: 2.4

Query :: # input compound: C#Cc1c(F)ccc2cc(O)cc(-c3ncc4c(N5CC6CCC(C5)N6)nc(OC[C@@]56CCCN5C[C@H](F)C6)nc4c3F)c12 [Positive Compound 1, reference compound] ; wanted: its bioavailability
Result :: 2.2

Query :: Using the record for "[2H]C([2H])([2H])C([2H])([2H])[C@@]12CC[C@@H](CN(c3nc(OC[C@@]45CCCN4C/C(=C\F)C5)nc4c(F)c(-c5cc(N)cc6ccc(F)c(C#C)c56)ncc34)C1)N2" , report its bioavailability.
Result :: 48.6

Query :: Given the entry "[2H]C([2H])([2H])[C@@]12CC[C@@H](CN(c3nc(OC[C@@]45CCCN4C/C(=C\F)C5)nc4c(F)c(-c5cc(N)cc6ccc(F)c(C#C)c56)ncc34)C1)N2" , report its measured bioavailability.
Result :: 41.7

Query :: bioavailability for C#Cc1c(F)ccc2cc(O)cc(-c3ncc4c(N5C[C@H]6CC[C@@H](C5)N6)nc(OC[C@@]56CCCN5C/C(=C/F)C6)nc4c3F)c12 [Reference Compound 2, reference compound] ?
Result :: 1.2

Query :: Data request, read-out bioavailability, for "C#Cc1c(F)ccc2cc(O)cc(-c3ncc4c(N5C[C@@H]6CC[C@](C7CC7)(C5)N6)nc(OC[C@@]56CCCN5C/C(=C\F)C6)nc4c3F)c12"
Result :: 26.4

Source listed as patent US20260207605A1.
